Origin of measurements: patent US20180030151A1

List of FXa assay % of FXa alone, 5 nM Ab, 10 nM TFPI values.
Target: recombinant human TFPI (tissue factor pathway inhibitor) (human, UniProt P10646 29-304)
Assay: cell-based or functional assay
Respond numerically; units are % and should not be typed.

Problem: Dear colleague, I am looking for the recorded FXa assay % of FXa alone, 5 nM Ab, 10 nM TFPI of the following binder: clone 1123 (antibody, V domains shown) VH: EVQLVESGGGLVKPGGSLRLSCAASGFTFSSYAMNWVRQAPGKGLEWVSTITTGGSHTYYADSVEGRFTISRDNAKNSLYLQMNSLRAEDTAVYYCARQDGHFLMDYWGQGTLVTVSS VL: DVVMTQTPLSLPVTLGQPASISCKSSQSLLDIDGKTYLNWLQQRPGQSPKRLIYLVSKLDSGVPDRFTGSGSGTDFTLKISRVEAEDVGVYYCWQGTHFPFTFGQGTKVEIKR
Solution: 14.7

Problem: Dear colleague, I am looking for the recorded FXa assay % of FXa alone, 5 nM Ab, 10 nM TFPI of the following binder: clone 1023 (antibody, V domains shown, scFv on yeast at selection; human IgG4/kappa IgG as purified) VH: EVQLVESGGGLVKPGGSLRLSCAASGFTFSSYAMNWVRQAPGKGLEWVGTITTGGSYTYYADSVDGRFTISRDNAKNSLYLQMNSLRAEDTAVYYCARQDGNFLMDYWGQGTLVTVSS VL: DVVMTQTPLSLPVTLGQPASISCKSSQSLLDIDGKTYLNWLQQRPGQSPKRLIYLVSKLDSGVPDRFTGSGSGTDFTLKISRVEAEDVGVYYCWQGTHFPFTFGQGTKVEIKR
Solution: 47.3

Problem: Dear colleague, I am looking for the recorded FXa assay % of FXa alone, 5 nM Ab, 10 nM TFPI of the following binder: clone 1104 (antibody, V domains shown) VH: EVQLVESGGGLVKPGGSLRLSCAASGFTFSSYAMNWVRQAPGKGLEWVGTITTGGSHTYYADSVQGRFTISRDNAKNSLYLQMNSLRAEDTAVYYCARQDGNFLMDYWGQGTLVTVSS VL: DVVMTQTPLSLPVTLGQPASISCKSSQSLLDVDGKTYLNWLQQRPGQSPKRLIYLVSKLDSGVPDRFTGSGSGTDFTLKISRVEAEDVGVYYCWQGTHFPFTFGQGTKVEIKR
Solution: 28.3

Problem: Dear colleague, I am looking for the recorded FXa assay % of FXa alone, 5 nM Ab, 10 nM TFPI of the following binder: clone 1024 (antibody, V domains shown) VH: EVQLVESGGGLVKPGGSLRLSCAASGFTFSSYAMSWVRQAPGKGLEWVSTITTGGSYTYYADSVDGRFTISRDNAKNSLYLQMNSLRAEDTAVYYCARQDGNFLMDYWGQGTLVTVSS VL: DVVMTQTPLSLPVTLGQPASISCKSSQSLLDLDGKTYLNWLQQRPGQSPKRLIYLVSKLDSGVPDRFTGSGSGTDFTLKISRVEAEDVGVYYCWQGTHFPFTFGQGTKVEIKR
Solution: 6.2

Let us move to another entry and its FXa assay % of FXa alone, 5 nM Ab, 10 nM TFPI.
Problem: Dear colleague, I am looking for the recorded FXa assay % of FXa alone, 5 nM Ab, 10 nM TFPI of the following binder: clone 1001 (antibody, V domains shown) VH: EVQLVESGGGLVKPGGSLRLSCAASGFTFSSYAMNWVRQAPGKGLEWVSTITTGGSYTYYADSVDGRFTISRDNAKNSLYLQMNSLRAEDTAVYYCARQDGNFLMDYWGQGTLVTVSS VL: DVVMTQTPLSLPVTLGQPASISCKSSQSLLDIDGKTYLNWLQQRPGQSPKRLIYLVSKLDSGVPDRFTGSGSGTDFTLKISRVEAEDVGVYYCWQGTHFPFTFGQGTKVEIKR
Solution: 10.3
